Values from patent US20050101595A1

target: human CDK4 and genetically truncated (1-264) cyclin D3 (Homo sapiens); assay: Inhibition of CDK4/Cyclin D Retinoblastoma Kinase Activity; conditions: apparent Ki, CDK4/truncated cyclin D3, Rb fragment substrate, 25 μM ATP
pKi: −log10 of the molar value. Where a name gives a salt, the structure may show the parent alone.
assay.endpoint: pKi

1. CC(C)S(=O)(=O)c1csc(C(=O)N2CCC(Nc3nc(N)c(C(=O)c4c(F)cccc4F)s3)CC2)c1Cl
2. CN1CCC[C@@H](Oc2ccc(S(=O)(=O)N3CCC(Nc4nc(N)c(C(=O)c5c(F)cccc5F)s4)CC3)cn2)C1 [Example H26, Hydrochloride]
Task: Field: lower pKi | Options: 1 / 2 To answer, give the label that identifies your chosen option.
Result: 1

A. Nc1nc(NC2CCN(S(=O)(=O)c3ccc(F)cc3)CC2)sc1C(=O)c1c(F)cccc1F
B. Nc1nc(NC2CCN(S(=O)(=O)CCN3CC=CC3)CC2)sc1C(=O)c1c(F)cccc1F
C. Nc1nc(NC2CCNCC2)sc1C(=O)c1c(F)cccc1F
Task: Ascending by pKi, please: list the compounds accordingly. Ranked list of labels, please, in the requested order.
Result: C, B, A
(C: 6.08, B: 8.18, A: 8.85)

###

target: CDK2/Cyclin A (Homo sapiens); experiment: Inhibition of CDK2/Cyclin A Retinoblastoma Kinase Activity; type: biochemical; settings: 0.03 μM compound; Table 4
assay.endpoint: CDK2 % Inhibition at 0.03 μM (%)

Example cases with answers are listed next.
N#Cc1ccc(C(=O)N2CCC(Nc3nc(N)c(C(=O)c4c(F)cccc4F)s3)CC2)cc1 [Example Q60]
37
Nc1nc(NC2CCN(C(=O)OCc3ccccc3)CC2)sc1C(=O)c1c(F)cccc1F [Example Q6]
−32

1. Cc1cccc(C(=O)N2CCC(Nc3nc(N)c(C(=O)c4c(F)cccc4F)s3)CC2)c1 [Example Q25]
2. Nc1nc(NC2CCN(C(=O)C3CCC3)CC2)sc1C(=O)c1c(F)cccc1F [Example Q56]
Task: Which one would you say has the larger CDK2 % Inhibition at 0.03 μM value: 1 , or 2 ? To answer, give the label that identifies your chosen option.
Result: 1

###

molecular target: human CDK4 and genetically truncated (1-264) cyclin D3 (Homo sapiens, UniProt P11802); assay: Inhibition of CDK4/Cyclin D Retinoblastoma Kinase Activity; format: biochemical; conditions: at 0.03 μM
Sequence (P11802 whole entry, the tested form may be a part): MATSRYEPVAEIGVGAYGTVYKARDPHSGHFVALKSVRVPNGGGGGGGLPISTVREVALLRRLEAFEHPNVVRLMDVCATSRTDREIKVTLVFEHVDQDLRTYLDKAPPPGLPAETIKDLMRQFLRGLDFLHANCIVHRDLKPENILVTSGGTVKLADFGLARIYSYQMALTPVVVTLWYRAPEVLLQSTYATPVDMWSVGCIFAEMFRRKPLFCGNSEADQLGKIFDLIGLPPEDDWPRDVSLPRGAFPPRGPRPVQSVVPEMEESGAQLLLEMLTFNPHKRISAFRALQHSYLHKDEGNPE
Sequence (P30281 1-264 partner): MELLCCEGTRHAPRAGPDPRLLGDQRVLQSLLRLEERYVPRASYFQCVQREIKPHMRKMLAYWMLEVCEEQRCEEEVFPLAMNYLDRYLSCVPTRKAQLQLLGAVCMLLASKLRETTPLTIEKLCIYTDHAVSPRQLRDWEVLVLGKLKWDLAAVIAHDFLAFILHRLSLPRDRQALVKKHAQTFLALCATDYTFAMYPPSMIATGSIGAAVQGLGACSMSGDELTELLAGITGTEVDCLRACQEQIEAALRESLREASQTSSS
assay.endpoint: CDK4 % Inhibition at 0.03 μM (%)

Example cases with answers are listed next.
Nc1nc(NC2CCN(C(=O)c3ccc(Cl)c(Cl)c3)CC2)sc1C(=O)c1c(F)cccc1F
52
CCCCCOc1ccc(C(=O)N2CCC(Nc3nc(N)c(C(=O)c4c(F)cccc4F)s3)CC2)cc1
49
CCOC(=O)CCCC(=O)N1CCC(Nc2nc(N)c(C(=O)c3c(F)cccc3F)s2)CC1
42

A. CN(C)c1cccc(C(=O)N2CCC(Nc3nc(N)c(C(=O)c4c(F)cccc4F)s3)CC2)c1
B. Nc1nc(NC2CCN(C(=O)c3cccnc3Oc3ccc(Cl)cc3)CC2)sc1C(=O)c1c(F)cccc1F
C. Nc1nc(NC2CCN(C(=O)CC3CCCCC3)CC2)sc1C(=O)c1c(F)cccc1F
D. CC(C)(C)c1cc(C(=O)N2CCC(Nc3nc(N)c(C(=O)c4c(F)cccc4F)s3)CC2)n(Cc2ccccc2)n1
Task: Ascending by CDK4 % Inhibition at 0.03 μM, please: list the compounds accordingly. Ranked list of labels, please, in the requested order.
Result: C, B, A, D
(C: 10%, B: 25%, A: 50%, D: 72%)
